- Test system: Microbotryum violaceum
- experiment-description: Antimicrobial activity against Microbotryum violaceum 5 mg/ml
- Type: functional
measured-attribute: inhibition zone (IZ)

Answered cases to consult:
{"columns": ["compound", "measurement-target", "measured-attribute", "recorded-measurement"],
 "data": [
  ["C[C@@H]1CCC2=C3C1=COC[C@@]3(C)[C@H](O)C2(C)C", "Microbotryum violaceum", "inhibition zone (IZ)", "5 mm"],
  ["C[C@@H]1C[C@H](O)[C@H]2C(C)(C)C[C@]3(C)CO[C@H](O)[C@@H]1[C@@]23O", "Microbotryum violaceum", "inhibition zone (IZ)", "0 mm"],
  ["CO[C@H]1OC[C@@]2(C)[C@H](OC(C)=O)C(C)(C)[C@@H]3[C@@H](OC(C)=O)C[C@@H](C)[C@H]1[C@@]32O", "Microbotryum violaceum", "inhibition zone (IZ)", "0 mm"],
  ["Cc1ccc2c3c1[C@@H](O)OC[C@@]3(C)[C@H](O)C2(C)C", "Microbotryum violaceum", "inhibition zone (IZ)", "6 mm"],
  ["C[C@@H]1C[C@H](O)C2=C3C1=COC[C@@]3(C)[C@H](O)C2(C)C", "Microbotryum violaceum", "inhibition zone (IZ)", "5 mm"]
]}

Respond only with inhibition zone (IZ) recorded for C[C@@H]1CC=C2[C@@H]3[C@H]1CC(O)[C@@]3(C=O)CC2(C)C (some centres undefined)
0 mm

Respond only with inhibition zone (IZ) recorded for CO[C@H]1OC[C@@]2(C)[C@H](O)C(C)(C)[C@@H]3[C@@H](O)C[C@@H](C)[C@H]1[C@@]32O
0 mm

Respond only with inhibition zone (IZ) recorded for Cc1ccc2c3c1C(=O)OC[C@@]3(C)[C@H](O)C2(C)C
0 mm

Respond only with inhibition zone (IZ) recorded for CO[C@H]1OC[C@]2(C)c3c(ccc(C)c31)C(C)(C)[C@H]2O
8 mm
